# experimental_system: Vitamin D3 receptor (Homo sapiens)
# test_name: Activity at human VDR expressed in human HOS cells transfected with pGL3-hOc, pCDNA-hVDR and phRL-TK assessed as assessed as transcriptional activation measured 24 hrs post […] by luciferase reporter gene assay
pEC50: −log10 of the molar value.
Note to self: values exactly at 9 are t. So pEC50 at or above 9 is t, below is f.

structure_smiles_string	discrete_label
CCC(CC)(c1ccc(OC[C@H](O)C(C)(C)C)c(C)c1)c1ccc(OC(CCO)CCO)c(C)c1	f

Problem: Is pEC50 at least 9? Consider CCC(CC)(c1ccc(OC[C@H](O)C(C)(C)C)c(C)c1)c1ccc(O[C@@H](CO)CCO)c(C)c1
Solution: t

---

# experimental_system: Vitamin D3 receptor (Homo sapiens, UniProt P11473)
# Sequence (P11473 whole entry): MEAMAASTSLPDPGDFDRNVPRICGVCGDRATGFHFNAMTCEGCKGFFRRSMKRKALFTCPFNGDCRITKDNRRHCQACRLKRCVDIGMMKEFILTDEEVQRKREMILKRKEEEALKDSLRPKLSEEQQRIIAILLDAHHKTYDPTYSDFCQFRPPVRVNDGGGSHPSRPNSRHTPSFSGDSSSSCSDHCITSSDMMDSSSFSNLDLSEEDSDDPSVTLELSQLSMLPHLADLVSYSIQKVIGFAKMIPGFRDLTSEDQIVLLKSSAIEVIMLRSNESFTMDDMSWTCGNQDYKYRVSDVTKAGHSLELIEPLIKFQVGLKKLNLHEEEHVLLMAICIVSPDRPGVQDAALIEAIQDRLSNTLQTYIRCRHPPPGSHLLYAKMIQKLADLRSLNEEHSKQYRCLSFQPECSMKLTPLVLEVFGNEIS
# test_name: Activity at human VDR expressed in human HOS cells transfected with pGL3-hOc, pCDNA-hVDR and phRL-TK assessed as assessed as transcriptional activation measured 24 hrs post […] by luciferase reporter gene assay
# Type: cell-based
reported_property: EC50 (nM)
Lab book: enter the figure in nM, no units written.

structure_smiles_string	units_label	EC50
CCC(CC)(c1ccc(OC[C@H](O)C(C)(C)C)c(C)c1)c1ccc(O[C@H](CO)CCO)c(C)c1	nM	1.29
CCC(CC)(c1ccc(OCC(CO)CO)c(C)c1)c1ccc(OC[C@H](O)C(C)(C)C)c(C)c1	nM	1.11
CCC(CC)(c1ccc(OC[C@H](O)C(C)(C)C)c(C)c1)c1ccc(O[C@@H](CO)[C@@H](O)CO)c(C)c1	nM	0.92

Problem: Return EC50 for the following compound: CCC(CC)(c1ccc(OC[C@H](O)C(C)(C)C)c(C)c1)c1ccc(O[C@H](CO)[C@H](O)CO)c(C)c1
Solution: 1.25
